- TARGET OF ASSAY: AT2 receptor (Homo sapiens (Human))
- Sequence (P50052 whole entry, species assumed): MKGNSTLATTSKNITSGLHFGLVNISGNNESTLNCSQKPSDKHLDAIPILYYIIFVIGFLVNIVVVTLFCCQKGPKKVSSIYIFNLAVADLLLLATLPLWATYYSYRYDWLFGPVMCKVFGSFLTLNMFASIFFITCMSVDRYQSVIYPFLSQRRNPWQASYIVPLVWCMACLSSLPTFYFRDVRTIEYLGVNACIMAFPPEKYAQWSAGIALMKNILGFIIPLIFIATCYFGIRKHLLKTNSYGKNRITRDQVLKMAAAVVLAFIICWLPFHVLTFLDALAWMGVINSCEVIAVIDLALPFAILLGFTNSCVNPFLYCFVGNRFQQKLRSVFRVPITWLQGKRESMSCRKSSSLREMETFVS
- ASSAY PROTOCOL: AT2 receptor binding assay ([125I]-CGP42112A, HEK293/AT2 receptor cell membranes)
- CONDITION NOTES: displacement of [125I]-CGP42112A
pIC50: −log10 of the molar value.

- LINE NOTATION: "O=C(O)[C@@H]1C[C@H](c2sccc2-c2ccccc2)CN1C(=O)C(c1ccccc1)c1ccccc1"
  pIC50: 6.34

Values were extracted from patent US10370388B2.
